- Tested on: BT-549 breast
- method_description: NCI-60 one-dose screen, 48 h
- cond: 10 µM unless noted
About 83,000 compounds went through this panel and 20% of them were active in at least one assay; those are over-represented in the sample as a whole. Active and inactive are the calls of the source. Rule for the calls: active = growth percent below 10; inactive = the rest.
Classes used: YES for active, NO for inactive

- structure_smiles: "Cn1cc(-c2csc(-c3c[nH]c4ccccc34)n2)c2cnccc21"
  category: "NO"
- structure_smiles: "c1ccc(Cn2cc3c(c2)-c2oncc2CC3)cc1"
  category: "NO"
- structure_smiles: "CC(C)(C)CC(C)(C)NC(=O)Nc1ncccc1OCc1ccccc1"
  category: "NO"
- structure_smiles: "O=C(CSc1nc2ccc([N+](=O)[O-])cc2[nH]1)Nc1ccc([N+](=O)[O-])cc1"
  category: "YES"
- structure_smiles: "O=C(COc1ccc(-c2nc3cc(Cl)c(Cl)cc3[nH]2)cc1)N=Nc1c(O)[nH]c2ccc(Cl)cc12"
  category: "NO"
- structure_smiles: "CSc1nc2ncc([N+](=O)[O-])c(=O)n2[nH]1"
  category: "NO"

----------
- System: HOP-62 NSCLC
- method_description: NCI-60 one-dose screen, 48 h (100 = growth as untreated, 0 = no growth, -100 = all killed)
- cond: 10 µM unless noted
Compounds without any hit were thinned out: in the full panel of roughly 83,000, 20% have a hit.
Consider the following partition of reported growth into named classes: low value = under 60%, medium value = from 60% up to 80%, high value = 80% and over

- structure_smiles: "C=C(C)[C@@H]1CCC[C@]2(COS(=O)(=O)c3ccc(C)cc3)CC[C@]3(C)[C@@H](CC[C@@H]4[C@@]5(C)CCCNC(C)(C)[C@@H]5CC[C@]43C)[C@@H]12"
  category: "medium value"
- structure_smiles: "O=S(=O)(NCCNc1nccc(-c2c(-c3ccc(F)c(O)c3)nc3occn23)n1)c1ccc(Cl)cc1"
  category: "high value"
- structure_smiles: "CCSc1nc2scc(C)c2c(=O)[nH]1"
  category: "high value"
- structure_smiles: "CNc1nnc2n(-c3ccccc3)c(=O)c3cnn(-c4ccccc4)c3n12"
  category: "medium value"
- structure_smiles: "C#CCOc1cccc(Nc2ncnc3cc(NC(=O)C=C)ccc23)c1"
  category: "low value"
- structure_smiles: "COc1ccc(C(=O)c2cc3c(N)c(C(=O)Nc4ccc(C)cc4)sc3nc2C)cc1"
  category: "low value"

----------
growth: recorded values
- System: CCRF-CEM leukemia
- method_description: NCI-60 one-dose screen, 48 h (100 = growth as untreated, 0 = no growth, -100 = all killed)
- cond: 10 µM unless noted
The panel holds about 83,000 compounds, 20% with a hit somewhere; the sample as a whole holds those more often. Calls of active or inactive are those of the source. Rule for the calls: active = growth percent below 10; inactive = the rest.

- structure_smiles: "CC(C)=CC(=O)OCC(=O)O[C@@H]1C[C@]2(C(C)C)O[C@@]1(C)[C@@H]1CC[C@@H](C)[C@H]1[C@@H]2OC(=O)/C=C/c1ccccc1"
  growth: "78.4% (inactive)"
- structure_smiles: "CCCn1cc2c(=O)nc3sc(Cc4ccccc4)c(C)n3c2n1"
  growth: "92.3% (inactive)"
- structure_smiles: "Cc1cc(N2CCN(CC(=O)Nc3ccc4c(ccn4C)c3)CC2)nc(N2CCCCCC2)n1"
  growth: "35.3% (inactive)"
- structure_smiles: "CCC1=C[C@@H]2C[C@]3(C(=O)OC)c4[nH]c5ccccc5c4CC[N@+](CC(=O)Nc4cc5c(cc4OC)N(C)[C@H]4[C@@](O)(C(=O)OC)[C@H](OC(C)=O)[C@]6(CC)C=CCN7CC[C@]54[C@@H]76)(C2)[C@H]13"
  growth: "80.6% (inactive)"

----------
- Tested on: MDA-MB-231 breast
- method_description: NCI-60 one-dose screen, 48 h (100 = growth as untreated, 0 = no growth, -100 = all killed)
- cond: 10 µM unless noted
- Method: Cells are grown in 96 well plates and exposed to the test compound for 48 hours. Compounds are tested at a single concentration, which is 10^-5 M for most compounds. The reported endpoint is percent growth (GI% or GIPRCNT), where numbers from 0 - 100% represent growth inhibition, and numbers from -100% - 0 represent cell death. For example, a value of 40 represents 60% growth inhibition. A value of 0 means no net growth occurred over the course of the experiment. […]
About 83,000 compounds went through this panel and 20% of them were active in at least one assay; those are over-represented in the sample as a whole.
Rule for this label: YES means growth is less than 60%; NO means growth is at least 60%.

- molecule: "COc1c(B(O)O)cccc1-c1nc2c(F)cc3[nH]ncc3c2c2c1CCCC2"
  target_or_test_system: "MDA-MB-231 breast"
  category: "YES"
- molecule: "COc1cc2c(cc1OCCCN1CCN(CCCOc3cc4c(cc3OC)C(=O)N3CC(F)(F)C[C@H]3C=N4)CC1)N=C[C@@H]1CC(F)(F)CN1C2=O"
  target_or_test_system: "MDA-MB-231 breast"
  category: "NO"
- molecule: "C=C1C(=O)O[C@H]2[C@H]1CC/C(COC(=O)c1cc3ccccc3s1)=C\\CC[C@@]1(C)O[C@@H]21"
  target_or_test_system: "MDA-MB-231 breast"
  category: "YES"
- molecule: "O=C1/C(=C/c2ccc([N+](=O)[O-])cc2)COc2ccc(O)cc21"
  target_or_test_system: "MDA-MB-231 breast"
  category: "NO"
- molecule: "O=C1c2ccc3c4c5ccc(c24)C(=O)N1CCCOCCCCOCCCNCc1ccc(cc1)CNCCCOCCCCOCCCN(C3=O)C5=O"
  target_or_test_system: "MDA-MB-231 breast"
  category: "YES"
- molecule: "O=C(Nc1cccc(-c2ccc(N3CCOCC3)nn2)c1)Nc1cccc(C(F)(F)F)c1"
  target_or_test_system: "MDA-MB-231 breast"
  category: "NO"
- molecule: "N#Cc1c(-c2ccc(Cl)cc2)c(C#N)c2c(C#N)c(N)nn2c1N"
  target_or_test_system: "MDA-MB-231 breast"
  category: "NO"
- molecule: "COc1cc(-c2cncn2-c2ccc(-c3nc4ccc(F)cc4s3)cc2)ccc1F"
  target_or_test_system: "MDA-MB-231 breast"
  category: "NO"
- molecule: "CCOC(=O)C1=C(N)Oc2c(sc3c(F)cccc23)C1c1ccc(O)cc1 (configuration not stated)"
  target_or_test_system: "MDA-MB-231 breast"
  category: "YES"
- molecule: "C/C(Cc1ccc(Cl)cc1)=C(\\c1ccc(O)cc1)c1ccc(Cl)cc1"
  target_or_test_system: "MDA-MB-231 breast"
  category: "NO"
- molecule: "O=c1c2ccccc2n2cnc3ccc(Cl)c1c32"
  target_or_test_system: "MDA-MB-231 breast"
  category: "NO"
- molecule: "CSc1oc(C)nc1[P+](c1ccccc1)(c1ccccc1)c1ccccc1"
  target_or_test_system: "MDA-MB-231 breast"
  category: "NO"
- molecule: "Cc1ccc2c(n1)C(=O)C(Br)=C(C1CCCC1)C2=O"
  target_or_test_system: "MDA-MB-231 breast"
  category: "NO"
- molecule: "Cc1c2cnccc2c(C)c2c1c1cc(C#N)ccc1n2C"
  target_or_test_system: "MDA-MB-231 breast"
  category: "YES"
- molecule: "COc1ccc(C(=O)Nc2cccc(-c3cc(=O)c4c(OC)c(OC)c(OC)cc4o3)c2)cc1"
  target_or_test_system: "MDA-MB-231 breast"
  category: "YES"
- molecule: "CCn1cc(C(=O)NNC(=S)Nc2ccc(C)cc2)c(=O)c2ccc(C)nc21"
  target_or_test_system: "MDA-MB-231 breast"
  category: "NO"
- molecule: "COc1ccc(-c2cc(-c3cccnc3)nc3sc4c(=O)[nH]c(-c5ccc(Cl)cc5)nc4c23)cc1OC"
  target_or_test_system: "MDA-MB-231 breast"
  category: "NO"
- molecule: "COCCn1cc(-c2csc(-c3cn(C)c4ccc(Br)cc34)n2)c2cccnc21"
  target_or_test_system: "MDA-MB-231 breast"
  category: "YES"
- molecule: "C[PH+](c1nc2ccccc2nc1[PH+](C)C(C)(C)C)C(C)(C)C.C[PH+](c1nc2ccccc2nc1[PH+](C)C(C)(C)C)C(C)(C)C.[Au+].[Cl-] (configuration not stated)"
  target_or_test_system: "MDA-MB-231 breast"
  category: "YES"
- molecule: "Cc1nc2sc(C(=O)Nc3ccc(Br)cc3)c(N)c2cc1C(O)c1ccccc1 (configuration not stated)"
  target_or_test_system: "MDA-MB-231 breast"
  category: "YES"
- molecule: "COc1cc2c(c(OC)c1OC)CCC(c1cccc(C(=O)Nc3cccc(Cl)c3)c1)O2 (configuration not stated)"
  target_or_test_system: "MDA-MB-231 breast"
  category: "YES"
- molecule: "CC(C)Cn1cnc2c(=O)[nH]c(N)nc21"
  target_or_test_system: "MDA-MB-231 breast"
  category: "NO"
- molecule: "NC(N)=NCCCCCNc1noc(Cc2c[nH]c3cc(Br)ccc23)n1"
  target_or_test_system: "MDA-MB-231 breast"
  category: "NO"
- molecule: "CC1=C([Se]CC(OC(=O)CC[Se]c2ccccc2)C(=O)NC(C)(C)C)C(=O)c2ccccc2C1=O (configuration not stated)"
  target_or_test_system: "MDA-MB-231 breast"
  category: "YES"
- molecule: "O=C(CN1C(=O)NC2NC(=O)NC21)N/N=C/c1ccccc1[N+](=O)[O-] (configuration not stated)"
  target_or_test_system: "MDA-MB-231 breast"
  category: "NO"
- molecule: "N#CSc1c[nH]c2cccc(/C=C/C(=O)/C=C(/C=C/c3cccc4[nH]cc(SC#N)c34)OB(F)F)c12"
  target_or_test_system: "MDA-MB-231 breast"
  category: "YES"
- molecule: "O=C(Nc1cccc(-c2ccc(Cl)c(C(F)(F)F)c2)c1)C1CCN(Cc2cccc3cccnc23)CC1"
  target_or_test_system: "MDA-MB-231 breast"
  category: "YES"
- molecule: "COc1ccc(CNc2c3ccccc3nc3ccccc23)cc1"
  target_or_test_system: "MDA-MB-231 breast"
  category: "YES"
- molecule: "O=C(CN1C(=O)S/C(=C\\c2ccccc2)C1=O)Nc1ncc(Cc2ccccc2Cl)s1"
  target_or_test_system: "MDA-MB-231 breast"
  category: "NO"
- molecule: "Cc1cc(N2CCN(CC(=O)Nc3ccc4c(ccn4C)c3)CC2)nc(N2CCCCCC2)n1"
  target_or_test_system: "MDA-MB-231 breast"
  category: "NO"
- molecule: "Cc1[nH]c(C(=O)Nc2ccc(C(=O)N3CCN(c4cc5c(cc4F)c(=O)c(C(=O)O)cn5C4CC4)CC3)cc2OC(C)C)c(Cl)c1Cl"
  target_or_test_system: "MDA-MB-231 breast"
  category: "NO"
- molecule: "C#CCOc1cccc(Nc2ncnc3cc(NC(=O)C=C)ccc23)c1"
  target_or_test_system: "MDA-MB-231 breast"
  category: "YES"
- molecule: "COC1=CC(c2ccc[nH]2)=N/C1=C\\c1[nH]c(C)c(CC(=O)OCc2ccccc2)c1CCC(=O)OCc1ccccc1"
  target_or_test_system: "MDA-MB-231 breast"
  category: "YES"
- molecule: "CCCCCC(/C=N\\NC(=S)N/N=C/C(=C/c1ccccc1)CCCCC)=C\\c1ccccc1"
  target_or_test_system: "MDA-MB-231 breast"
  category: "NO"
- molecule: "CCNCCNc1cc(-c2ccc(C(F)(F)F)cc2)c(C#N)c2nc3ccccc3n12"
  target_or_test_system: "MDA-MB-231 breast"
  category: "YES"
- molecule: "CCCCNC(=O)Oc1ccc(/C(=C(/C)Cc2ccc(OC)cc2)c2ccc(OCCN(CC)CC)cc2)cc1"
  target_or_test_system: "MDA-MB-231 breast"
  category: "NO"

Reference for the values: PubChem BioAssay (NCI)
